Target: T1, Human IL2Rγ extracellular domain expressed with a C-terminal myc-myc-hexahistidine tag (human)
T1 construct: also called hIL-2Rg-MMH; hIL-2RG-MMH
T1 chain: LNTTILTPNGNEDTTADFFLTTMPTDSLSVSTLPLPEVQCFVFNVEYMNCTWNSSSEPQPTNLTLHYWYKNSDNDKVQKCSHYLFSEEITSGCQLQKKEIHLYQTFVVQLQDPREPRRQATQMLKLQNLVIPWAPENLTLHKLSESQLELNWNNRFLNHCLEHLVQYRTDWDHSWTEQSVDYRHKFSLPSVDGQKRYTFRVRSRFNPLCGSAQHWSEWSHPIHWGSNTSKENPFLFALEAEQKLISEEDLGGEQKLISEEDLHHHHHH
Assay: SPR, captured mAb, 37C, dissociation pH 7.4
Reported Endpoint: 100 nM Ag Bound (RU)

>>> val("H4H12890P (antibody, human IgG4 S228P, kappa, V domains shown, anti-IL2Rgamma mAb expressed with human IgG4 Fc) VH: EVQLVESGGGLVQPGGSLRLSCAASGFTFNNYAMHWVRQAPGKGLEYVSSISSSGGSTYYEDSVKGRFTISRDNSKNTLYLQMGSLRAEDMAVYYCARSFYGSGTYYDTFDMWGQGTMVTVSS VL: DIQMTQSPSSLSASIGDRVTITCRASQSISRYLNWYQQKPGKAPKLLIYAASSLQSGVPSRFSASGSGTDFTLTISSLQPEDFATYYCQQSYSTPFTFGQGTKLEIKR")
90
